Entry source: patent US7538085B2

Each record here notes measured Ki.
system-name: Co(II)-substituted E. coli PDF (Escherichia coli)
Construct: made in house
Sequence (P0A6K3 whole entry): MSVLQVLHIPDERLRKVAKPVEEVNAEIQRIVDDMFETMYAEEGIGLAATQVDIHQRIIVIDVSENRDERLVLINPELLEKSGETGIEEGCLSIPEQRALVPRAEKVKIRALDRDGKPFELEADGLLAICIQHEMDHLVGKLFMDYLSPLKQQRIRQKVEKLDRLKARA
procedure-details: PDF assay coupled to formate dehydrogenase
Type: biochemical
Respond numerically; units are nM and should not be typed.

// worked examples, Ki included
compound	value-unit	Ki
NCCCC[C@@H]1NC(=O)[C@@H](CN(O)C=O)CCCCCCCCCNC1=O [Compound 6E]	nM	3
CC(C)(C)[C@@H]1NC(=O)[C@@H](CN(O)C=O)CCCCCCCCCCCNC1=O [Compound 4E]	nM	0.22

Exercise: Give the reported Ki for CC(C)(C)C1NC(=O)C(CN(O)C=O)CCCCCCCCCNC1=O (stereo not drawn) [Compound 2] (system: Co(II)-substituted E. coli PDF (Escherichia coli)).
Solution: 0.67
